experimentalProtocol: Area under curve was determined for the compound after iv dose of 5.10 mg/kg in rats
Format: ADME, organism-based
Design: dose 5.1 mg/kg, route intravenous
studyConditions: rat, in vivo, 5.1 mg/kg
experimentalEndpoint: AUC (ng·h/mL)
Enter your answer as a number in ng·h/mL; do not include the unit.

Data point: CCCC(=O)O.C[C@@H]1CN(C(=O)N2Cc3c(C(=O)OC(C)(C)C)ncn3-c3ccc(Cl)cc32)C[C@H](C)N1 ; AUC = 3540

---

experimentalProtocol: Time at which Cmax was reached was determined for the compound after po dose of 5.01 mg/kg in rats
Format: ADME, organism-based
Design: dose 5.01 mg/kg, route oral
studyConditions: rat, in vivo
experimentalEndpoint: Tmax (min)
Enter your answer as a number in min; do not include the unit.

Data point: C[C@H]1CN(C(=O)N2Cc3c(C(=O)OC(C)(C)C)ncn3-c3ccc(Cl)cc32)C[C@H](C)N1 ; Tmax = 15

---

experimentalProtocol: Time at which Cmax was reached was determined after po dose of 5.22 mg/kg of compound in rats
Type: ADME, organism-based
Set-up: dose 5.22 mg/kg, route oral
studyConditions: rat, in vivo
experimentalEndpoint: Tmax (min)
Enter your answer as a number in min; do not include the unit.

Data point: CCCC(=O)O.C[C@@H]1CN(C(=O)N2Cc3c(C(=O)OC(C)(C)C)ncn3-c3ccc(Cl)cc32)C[C@H](C)N1 ; Tmax = 30

---

Reported values of Shift for individual entries
tgt: GABA-A receptor; anion channel (Rattus norvegicus) (UniProt O09028+P15431+P18506+P18508+P19969+P20236+P23574+P23576+P28471+P28473+P30191+P62813+P63079+P63138+Q91ZM7+Q9ES14)
experimentalProtocol: Shift in [35S]TBPS binding to GABA-A Benzodiazepine receptor of rat brain membrane
Form field (numeric): enter value without unit.

Data point: C[C@@H]1NCCN(C(=O)N2Cc3c(C(=O)OC(C)(C)C)ncn3-c3ccc(Cl)cc32)[C@H]1C ; Shift = 0.07

Data point: CN1C2CCC1CN(C(=O)N1Cc3c(C(=O)OC(C)(C)C)ncn3-c3ccc(Cl)cc31)C2 ; Shift = 0.68

Data point: Cc1ccc2c(c1)N(C(=O)N1C[C@@H](C)N[C@H](C)C1)Cc1c(C(=O)OC(C)(C)C)ncn1-2 ; Shift = 0.1

Data point: Cc1ccc2c(c1)N(C(=O)N1C[C@@H](C)N[C@@H](C)C1)Cc1c(C(=O)OC(C)(C)C)ncn1-2 ; Shift = 0.38

Data point: C[C@@H]1CN(C(=O)N2c3cc(Cl)ccc3-n3cnc(C(=O)OC(C)(C)C)c3C2(C)C)C[C@H](C)N1 ; Shift = 1.23

Data point: CN1CCN(C(=O)N2Cc3c(C(=O)OC(C)(C)C)ncn3-c3ccc(Cl)cc32)CC1 ; Shift = 0.57

Data point: CC(C)(C)OC(=O)c1ncn2c1CN(C(=O)N1CCNCC1)c1cc(Cl)ccc1-2 ; Shift = -0.02

---

Reported values of Mean no. of shocks for individual entries
Test system: Rattus norvegicus
experimentalProtocol: Mean number of shocks produced by the compound in rats at a dose of 10 mg/kg was determined by vogel's punished licking assay
Format: functional
Form field (numeric): enter value without unit.

Below, each entry is followed by its recorded Mean no. of shocks result.
| structureSmiles | tgt | Mean no. of shocks |
| --- | --- | --- |
| CCCC(=O)O.C[C@@H]1CN(C(=O)N2Cc3c(C(=O)OC(C)(C)C)ncn3-c3ccc(Cl)cc32)C[C@H](C)N1 | Rattus norvegicus | 12 |
| C[C@H]1CN(C(=O)N2Cc3c(C(=O)OC(C)(C)C)ncn3-c3ccc(Cl)cc32)C[C@H](C)N1 | Rattus norvegicus | 8.8 |

Data point: C[C@@H]1CN(C(=O)N2Cc3c(C(=O)OC(C)(C)C)ncn3-c3ccc(Cl)cc32)C[C@H](C)N1C ; Mean no. of shocks = 18

Data point: C[C@@H]1CN(C(=O)N2Cc3c(C(=O)OC(C)(C)C)ncn3-c3ccc(C(F)(F)F)cc32)C[C@H](C)N1 ; Mean no. of shocks = 7.9

---

tgt: GABA-A receptor; alpha-1/beta-2/gamma-2 (Homo sapiens) (UniProt P14867+P47870+P18507)
experimentalProtocol: In vitro GABA-mediated chloride current in A293 cells expressing GABA-A benzodiazepine receptor alpha-1-beta-2-gamma-2 subunits at 5 uM
Assay type: functional, cell-based
studyConditions: HEK293
experimentalEndpoint: Change in Cl- current

| molecule | result |
| --- | --- |
| C[C@@H]1CN(C(=O)N2Cc3c(C(=O)OC(C)(C)C)ncn3-c3ccc(C(F)(F)F)cc32)C[C@@H](C)N1 | 0.7 |

Change in Cl- current on GABA-A receptor; alpha-1/beta-2/gamma-2 (Homo sapiens) (UniProt P14867+P47870+P18507) for CC(C)(C)OC(=O)c1ncn2c1CN(C(=O)N1CCNCC1)c1ccccc1-2.Cl is 0.35

Change in Cl- current on GABA-A receptor; alpha-1/beta-2/gamma-2 (Homo sapiens) (UniProt P14867+P47870+P18507) for CN1CC2CC1CN2C(=O)N1Cc2c(C(=O)OC(C)(C)C)ncn2-c2ccc(Cl)cc21 (stereo not drawn) is 1.6

---

experimentalProtocol: Oral bioavailability at a dose of 5.03 mg/kg in rats
Assay type: ADME, organism-based
studyConditions: rat, in vivo
experimentalEndpoint: bioavailability (%)
Enter your answer as a number in %; do not include the unit.

Data point: C[C@@H]1CN(C(=O)N2Cc3c(C(=O)OC(C)(C)C)ncn3-c3ccc(C(F)(F)F)cc32)C[C@H](C)N1 ; bioavailability = 84

---

tgt: GABA-A receptor; anion channel (Rattus norvegicus) (UniProt O09028+P15431+P18506+P18508+P19969+P20236+P23574+P23576+P28471+P28473+P30191+P62813+P63079+P63138+Q91ZM7+Q9ES14)
experimentalProtocol: Shift in [35S]TBPS binding to GABA-A Benzodiazepine receptor of rat brain membrane
Reported values of Shift for individual entries
Form field (numeric): enter value without unit.

| compound | experimentalEndpoint | recordedNumber |
| --- | --- | --- |
| CCCC(=O)O.CCN1[C@H](C)CN(C(=O)N2Cc3c(C(=O)OC(C)(C)C)ncn3-c3ccc(Cl)cc32)C[C@@H]1C | Shift | 0.15 |
| CC1CN(C)CC(C)N1C(=O)N1Cc2c(C(=O)OC(C)(C)C)ncn2-c2ccc(F)cc21 (centres undefined) | Shift | 0.63 |
| C[C@@H]1CN(C(=O)N2Cc3c(C(=O)OC(C)(C)C)ncn3-c3ccc(Cl)cc32)CCN1 | Shift | 0.01 |

For the next question, use this compound.
Data point: CC(C)(C)OC(=O)c1ncn2c1CN(C(=O)N1CCN(c3ccccn3)CC1)c1cc(Cl)ccc1-2 ; Shift = 0.32

---

tgt: GABA-A receptor; anion channel (Rattus norvegicus) (UniProt O09028+P15431+P18506+P18508+P19969+P20236+P23574+P23576+P28471+P28473+P30191+P62813+P63079+P63138+Q91ZM7+Q9ES14)
experimentalProtocol: Displacement of [3H]flunitrazepam from GABA-A benzodiazepine receptor of rat cortical membranes
Assay type: cell membranes
Design: concentration or dose not given beside the values
studyConditions: Membrane, concentration not given here
experimentalEndpoint: inhibition (%)
Enter your answer as a number in %; do not include the unit.

| molecule | experimentalEndpoint | recordedNumber |
| --- | --- | --- |
| CC1CN(C(=O)N2Cc3c(C(=O)OC(C)(C)C)ncn3-c3ccc(Cl)cc32)CC(C)N1 (configuration not stated) | inhibition | 63 |
| C[C@@H]1CN(C(=O)N2Cc3c(C(=O)OC(C)(C)C)ncn3-c3ccc(Cl)cc32)CCN1 | inhibition | 75 |
| C[C@@H]1CN(C(=O)N2c3cc(Cl)ccc3-n3cnc(C(=O)OC(C)(C)C)c3C2(C)C)C[C@H](C)N1C | inhibition | 84 |
| Cc1ccc2c(c1)N(C(=O)N1C[C@@H](C)N[C@@H](C)C1)Cc1c(C(=O)OC(C)(C)C)ncn1-2 | inhibition | 55 |
| CCCC(=O)O.CCN1[C@H](C)CN(C(=O)N2Cc3c(C(=O)OC(C)(C)C)ncn3-c3ccc(Cl)cc32)C[C@@H]1C | inhibition | 84 |

Data point: C[C@H]1CN(C(=O)N2Cc3c(C(=O)OC(C)(C)C)ncn3-c3ccc(Cl)cc32)C[C@H](C)N1 ; inhibition = 45

Data point: Cc1ccc2c(c1)N(C(=O)N1C[C@@H](C)N[C@H](C)C1)Cc1c(C(=O)OC(C)(C)C)ncn1-2 ; inhibition = 22

---

experimentalProtocol: Half-life after iv dose of 5.06 mg/kg in rats
Type: ADME, organism-based
Set-up: dose 5.06 mg/kg, route intravenous
studyConditions: rat, in vivo
experimentalEndpoint: half-life (min)
Enter your answer as a number in min; do not include the unit.

Data point: C[C@H]1CN(C(=O)N2Cc3c(C(=O)OC(C)(C)C)ncn3-c3ccc(Cl)cc32)C[C@H](C)N1 ; half-life = 90
